# Test system: T-47D breast
# measurement.description: NCI-60 one-dose screen, 48 h (100 = growth as untreated, 0 = no growth, -100 = all killed)
# test.conditions: 10 µM unless noted
This is part of a sample that, as a whole, favours compounds with a hit. Of some 83,000 tested, about 20% had one in any assay.
Items are presented alongside their recorded growth.
observable: growth (%)

compound: COc1ccc(C(=O)COC(=O)[C@H](C[Se][Se]C[C@H](NC(=O)c2ccc(Br)cc2F)C(=O)OCC(=O)c2ccc(OC)cc2)NC(=O)c2ccc(Br)cc2F)cc1
measurement.units: %
assay.value: -33.1
--
compound: O=c1c2cc(F)cc(Cl)c2sc2c(NCCCNCCO)nc3ccccc3c12
measurement.units: %
assay.value: 101
--
compound: COc1ccc(-c2nn(C(=O)c3cc(OC)c(OC)c(OC)c3)c3cc(N)ccc23)cc1
measurement.units: %
assay.value: 59.9
--
compound: CCCCCCN(CCCCCC)c1ccc(/C=C2/SC(=O)NC2=O)c(C)c1
measurement.units: %
assay.value: 77.2
--
compound: COc1cc(C2CC(c3ccc(N(C)C)cc3)=NN2C(C)=O)cc(OC)c1OC (centres undefined)
measurement.units: %
assay.value: 31.7
--
compound: COc1cc(C(=O)N/N=C/c2cc3cc(OCc4ccccc4)ccc3nc2OC)cc(OC)c1OC
measurement.units: %
assay.value: 54.3
--
compound: Oc1ccc(-c2nc3ccc4[nH]ncc4c3c3c2CCCC3)c2cccnc12
measurement.units: %
assay.value: 15.1
--
compound: N#Cc1ccc(NC(=O)c2sc3nc4c(cc3c2N)C(=O)CCC4)cc1
measurement.units: %
assay.value: 95.9
--
compound: CNc1nc2c(s1)C(c1cccc(F)c1)CC(=O)N2 (centres undefined)
measurement.units: %
assay.value: 94.8
--
compound: Nc1ccc(Sc2ccc([N+](=O)[O-])c3nonc23)cc1
measurement.units: %
assay.value: 54.5
--
compound: CSc1nc2ccc(C)cc2cc1/C=N/O
measurement.units: %
assay.value: 71
--
compound: COc1c(C2CC(=O)Nc3c2c(C)nn3-c2nc3ccccc3[nH]2)cc2c(c1OC)OCO2 (centres undefined)
measurement.units: %
assay.value: 43.8
--
compound: O=C(N/N=C/[C@H](O)[C@H](O)[C@H](O)CO)c1ccc(NC(=O)c2cccnc2)cc1
measurement.units: %
assay.value: 99.2
--
compound: COc1cccc2nc3n(c12)C(c1c(F)cccc1F)SC3 (centres undefined)
measurement.units: %
assay.value: 104
--
compound: COc1ccc(CN2c3ccccc3Sc3ccccc32)c(F)c1
measurement.units: %
assay.value: 11.9
--
compound: NC[C@@H]1O[C@H](O[C@@H]2[C@@H](CO)OC(O[C@@H]3[C@@H](O)[C@H](N)C[C@H](N)[C@H]3OC3O[C@H](CN)[C@@H](O)[C@H](O)[C@H]3N)[C@@H]2O)[C@H](N)[C@@H](O)[C@@H]1O (some centres undefined)
measurement.units: %
assay.value: 115
--
compound: c1ccc2c(c1)Nc1ccncc1S2
measurement.units: %
assay.value: 95.3
--
compound: O=C(N/N=C/[C@H](O)[C@@H](O)[C@@H](O)[C@H](O)CO)c1ccc(NC(=O)c2cccnc2)cc1
measurement.units: %
assay.value: 100
--
compound: CCOC(=O)c1c(C)oc2ncnc(N3CCN(C(=O)COc4ccc(C(C)(C)C)cc4)CC3)c12
measurement.units: %
assay.value: 47.7

====

Reported values of growth for individual entries
# Tested on: 786-0 renal
# measurement.description: NCI-60 one-dose screen, 48 h (100 = growth as untreated, 0 = no growth, -100 = all killed)
# test.conditions: 10 µM unless noted
This is part of a sample that, as a whole, favours compounds with a hit. Of some 83,000 tested, about 20% had one in any assay.

compound: C[C@]12CC[C@@H]3c4cc(OC(F)F)c(OS(N)(=O)=O)cc4CC[C@H]3[C@@H]1CC[C@@H]2O
growth, %: 42.3
//
compound: CCN(CC)CCCNc1nc2ccccc2c2c(=O)c3cc(Cl)ccc3sc12
growth, %: 75.7
//
compound: COc1cc(C2CC(c3cccc(Br)c3)=NN2C(C)=O)cc(OC)c1OC (stereo not drawn)
growth, %: 40.7
//
compound: COc1ccc(C(=O)C(C)C)c2ccccc12
growth, %: 100
//
compound: CC1(C)C2CC1C1(/C=N/NC(N)=S)C(C2)C(C#N)(C#N)C1(C#N)C#N (stereo not drawn)
growth, %: 81.7
//
compound: CCCCOc1nc2ccc(OC)cc2cc1-c1cc(-c2ccc(Cl)cc2)nc(-c2ccc(Cl)cc2)c1
growth, %: 112
//
compound: C=C1C(=O)O[C@H]2[C@H]1CC/C(COC(=O)CCSSCCC(=O)OC/C1=C/CC[C@@]3(C)O[C@H]3[C@H]3OC(=O)C(=C)[C@@H]3CC1)=C\CC[C@@]1(C)O[C@@H]21
growth, %: -70.9
//
compound: C=C1CC[C@@]2(C#N)[C@H]3[C@H](CC[C@@H]2C)[C@@H](C)C[C@@H](CC(C)(C)C#N)[C@H]13
growth, %: 43

====

# Test system: M14 melanoma
# measurement.description: NCI-60 one-dose screen, 48 h
# test.conditions: 10 µM unless noted
# Method: Growth inhibition of the M14 human tumor cell line is measured as a screen for anti-cancer activity. Cells are grown in 96 well plates and exposed to the test compound for 48 hours. Compounds are tested at a single concentration, which is 10^-5 M for most compounds. The reported endpoint is percent growth (GI% or GIPRCNT), where numbers from 0 - 100% represent growth inhibition, and numbers from -100% - 0 represent cell death. For example, a value of 40 represents 60% growth inhibition. […]
This is part of a sample that, as a whole, favours compounds with a hit. Of some 83,000 tested, about 20% had one in any assay. The source made the active and inactive calls. The calls were made as follows: active = growth percent below 10; inactive = the rest.
Classes used: 1.0 for active, 0.0 for inactive

compound: CCCCOc1nc2ccc(OC)cc2cc1-c1cc(-c2ccc(Cl)cc2)nc(-c2ccc(Cl)cc2)c1
answer.label: 0.0
//
compound: CN1CCN(c2ccc(-c3ccc4ncc(C#N)c(Nc5ccc(F)c(Cl)c5)c4c3)cc2)CC1
answer.label: 1.0
//
compound: CCOC(=O)C1=C(N)Oc2c(sc3c(C)cccc23)C1c1ccc(Cl)cc1 (centres undefined)
answer.label: 0.0
//
compound: CCN1C(=O)N(CC)C2Nn3c(s/c(=C\c4ccc([N+](=O)[O-])cc4)c3=O)=NC21 (centres undefined)
answer.label: 0.0
//
compound: Cc1ccc(-c2nc(N3CCN(C(=O)c4ccc(OC(F)(F)F)cc4)CC3)c3ccccc3n2)cc1
answer.label: 0.0
//
compound: O=C(Oc1cccc2ccccc12)Oc1cccc2ccccc12
answer.label: 0.0
//
compound: Brc1ccc2[nH]cc(-c3nc(-c4c[nH]c5ccncc45)cs3)c2c1
answer.label: 1.0
//
compound: CCOC(=O)c1c(C)nc2c(c1N)CC(=O)N2Cc1ccc(F)cc1
answer.label: 0.0
//
compound: COc1cc(C(=O)N2N=C(c3ccc(S(C)(=O)=O)cc3)CC2c2ccco2)cc(OC)c1OC (centres undefined)
answer.label: 0.0
//
compound: NC1CCN(c2nc(Nc3cccc(C(F)(F)F)c3)c3c(=O)[nH]ccc3n2)CC1
answer.label: 1.0
//
compound: COc1ccc2sc3c(NCCCNCCO)nc4ccccc4c3c(=O)c2c1
answer.label: 1.0
//
compound: COc1cc2cc(Oc3ccc(NC(=O)Nc4ccc(Cl)c(Cl)c4)cc3)c(C)nc2cc1OCCN1CCOCC1
answer.label: 0.0
//
compound: CCCCCCNC(=O)Oc1ccc(/C(=C(\C)c2ccc(Cl)cc2)c2ccc(OCCN3CCCCC3)cc2)cc1
answer.label: 1.0
//
compound: CCCCCCCCCCCCCCCCCCOc1ccccc1CC(=O)OCC[N+](CC)(CC)CC
answer.label: 0.0
//
compound: c1ccc(-c2nc3nonc3nc2-c2ccccc2)cc1
answer.label: 0.0
//
compound: Cc1ccc2c(-c3cc(-c4ccccc4)nc(N)c3C#N)cc(=O)oc2c1
answer.label: 0.0
//
compound: FC(F)(F)c1cc(Nc2ccc3c(OCCCN4CCOCC4)cccc3n2)ccc1Cl
answer.label: 0.0
//
compound: CN1CCN(Cc2ccc(NC(=O)c3ccc(C(C)(C)C)c(C#Cc4cnc5cccnn45)c3)cc2C(F)(F)F)CC1
answer.label: 1.0
//
compound: Cc1nc2nc(SCC(=O)O)[nH]c2c(=O)[nH]1
answer.label: 0.0
//
compound: C/C(=N/NC(N)=S)c1sc(Nc2cccc(Cl)c2)nc1C
answer.label: 0.0
//
compound: NCCCNc1nc2ccccc2c2c(=O)c3cc(OC(F)(F)F)ccc3sc12
answer.label: 1.0
//
compound: CN1CCN(c2ccc(-c3cc4c(Nc5ccc(F)c(Cl)c5)ncnn4c3)cc2)CC1
answer.label: 0.0
//
compound: Cc1cccc2c3c(sc12)C(c1ccc(Cl)cc1)C(C#N)=C(N)O3 (centres undefined)
answer.label: 1.0
//
compound: Cc1cccc(OCC(O)CN2CCN(c3ccc(Cl)cc3)CC2)c1 (centres undefined)
answer.label: 0.0
//
compound: COc1ccc(-c2cnc3ccccc3n2)cc1
answer.label: 0.0
//
compound: N#Cc1c(-c2ccccc2)nc(SCC(=O)Nc2nc(-c3ccc(Cl)cc3)cs2)[nH]c1=O
answer.label: 0.0
//
compound: COC(=O)Nc1ccc(-c2nc(-c3cccc(OC)c3)c(-c3ccnc(Br)c3)[nH]2)cc1
answer.label: 0.0
//
compound: COc1cc(C(=O)/C=C/c2ccc(OCCCCCC[P+](c3ccccc3)(c3ccccc3)c3ccccc3)cc2)cc(OC)c1OC
answer.label: 1.0
//
compound: O=C(Cc1ccc(F)c(Cl)c1)Nc1cc(C2(C(F)(F)F)CC2)nn1CC1CCCCC1
answer.label: 0.0
//
compound: O=c1c2cc(F)ccc2sc2c(NCCCNCCO)nc3ccccc3c12
answer.label: 1.0
//
compound: COc1cccc(-c2nc(-c3ccc(NC(=O)c4ccccc4)cc3)[nH]c2-c2ccnc(Br)c2)c1
answer.label: 0.0
//
compound: COc1cccc(-c2nn(-c3ccccc3)cc2-c2ccnc(N3CCOCC3)c2)c1
answer.label: 0.0
//
compound: COc1ccc(C(=O)N=Nc2c(O)n(C)c3ccccc23)cc1
answer.label: 0.0
//
compound: CC1=C([Se]CC(OC(=O)[C@@H](CSSC(C)(C)C)NC(=O)OC(C)(C)C)C(=O)NC(C)(C)C)C(=O)c2ccccc2C1=O (some centres undefined)
answer.label: 1.0
//
compound: Fc1cc2c(cc1Cl)N(c1ncnc3ccc(-c4cnc5cnccn45)cc13)CC2
answer.label: 0.0
//
compound: CCOC(=O)C1=C(N)Oc2c(sc3c(C)cccc23)C1c1ccc(F)cc1 (centres undefined)
answer.label: 0.0
//
compound: C=C1C(=O)O[C@H]2[C@H]1CC/C(COC(=O)CCSSCCC(=O)OC/C1=C/CC[C@@]3(C)O[C@H]3[C@H]3OC(=O)C(=C)[C@@H]3CC1)=C\CC[C@@]1(C)O[C@@H]21
answer.label: 1.0
//
compound: C=C(C)C1CCC2(C)OC2C1 (centres undefined)
answer.label: 0.0
//
compound: COc1cc(/C=C/c2ccccc2)cc(OC)c1
answer.label: 0.0
